# target_system: ERα protein (HiBiT-tagged) in ESR1_HiBiT KI MCF7 cells (Homo sapiens, UniProt P03372)
# protocol_details: Nano Glo HiBiT Lytic Degradation Assay
# Type: cell-based
# measurement_parameters: 6 hours with compound, 14-point dose response 1:3, bell-shape curve fit, half-maximal effect of first Hill model, read-out: MCF7 ESR1 HiBiT - (DC50)
The threshold is 2 nM. Values of DC50 beneath it are tagged condition met; values meeting or exceeding it are tagged condition not met.

compound: O=C1CC[C@H](N2Cc3cc(N4CCN(CC5CCN(c6ccc([C@H]7c8ccc(O)cc8CC[C@H]7C7CCC8(CC7)CC8)cc6)CC5)CC4)ccc3C2=O)C(=O)N1
category_label: condition not met
//
compound: O=C1CCC(c2ccc(N3CCC4(CCN(CC5CCN(c6ccc([C@@H]7c8ccc(O)cc8C(F)(F)C[C@@H]7c7ccccc7)cc6)CC5)C4)CC3)cc2)C(=O)N1 (stereo partly shown)
category_label: condition met
//
compound: NC(=O)CCC(C(=O)O)N1Cc2cc(N3CCN(CC4CCN(c5ccc([C@@H]6c7ccc(O)cc7CO[C@@H]6c6ccccc6)cc5)CC4)CC3)ccc2C1=O (stereo partly shown)
category_label: condition not met

-- ask Problem: For the compound O=C1CCC(N2Cc3cc(N4CCN(CC5CCN(c6ccc([C@@H]7c8ccc(O)cc8CC[C@@H]7c7cccc8c7CC8)cc6)CC5)CC4)ccc3C2=O)C(=O)N1 (single isomer, unassigned) , is DC50 under 2 nM?
-- reply condition met

-- ask What do we get for C[C@H]1C[C@@H](c2ccccc2)[C@@H](c2ccc(N3CCC(CN4CCN(c5ccc6c(c5)CN([C@H]5CCC(=O)NC5=O)C6=O)CC4)CC3)cc2)c2ccc(O)cc21 (single isomer, unassigned) ?
-- reply condition not met

-- ask Param item: [2H]c1c([2H])c([2H])c([C@@H]2CC(F)(F)c3cc(O)ccc3[C@@H]2c2ccc(N3CCC(CN4CCN(c5ccc6c(c5)CN([C@H]5CCC(=O)NC5=O)C6=O)CC4)CC3)cc2)c([2H])c1[2H]
-- reply condition not met

-- ask Same again, this time with O=C1CC[C@H](N2Cc3cc(N4CCN(CC5CCN(c6ccc([C@H]7c8ccc(O)cc8CC[C@H]7C7CCCCC7)c(F)c6)CC5)CC4)ccc3C2=O)C(=O)N1
-- reply condition not met

-- ask Try this compound too: O=C1CC[C@@H](c2ccc(N3CCC4(CCN(CC5CCN(c6ccc([C@@H]7c8ccc(O)cc8CC[C@@H]7c7ccccc7)cc6)CC5)C4)CC3)cc2)C(=O)N1 (single isomer, unassigned)
-- reply condition not met

-- ask Same read-out for O=C1CC[C@H](N2Cc3cc(N4CCN(CC5CCN(c6ccc([C@@H]7c8ccc(O)cc8CO[C@@H]7c7ccc(C(F)(F)F)cc7)cc6)CC5)CC4)ccc3C2=O)C(=O)N1 [Compound I-349] ?
-- reply condition met

---

# target_system: ERα protein (HiBiT-tagged) in ESR1_HiBiT KI MCF7 cells (Homo sapiens)
# protocol_details: Nano Glo HiBiT Lytic Degradation Assay
# Assay type: cell-based
# measurement_parameters: 6 hours with compound, 14-point dose response 1:3, bell-shape curve fit, half-maximal effect of first Hill model, read-out: MCF7 ESR1 HiBiT - (DC50)
DC50 values, listed per item
Provide the reading as a plain figure in nM.

-- ask Return reported DC50; argument: [2H]c1c([2H])c([2H])c([C@H]2CC(F)(F)c3cc(O)ccc3[C@H]2c2ccc(N3CCC(CN4CCN(c5ccc6c(c5)CN([C@H]5CCC(=O)NC5=O)C6=O)CC4)CC3)cc2)c([2H])c1[2H] [Compound I-335]
-- reply 0.36

-- ask Another compound to look at: O=C1CC[C@H](N2Cc3cc(N4CCN(CC5CCN(c6ccc([C@@H]7c8ccc(O)cc8CC[C@@H]7CC(F)(F)F)cc6)CC5)CC4)ccc3C2=O)C(=O)N1 [Compound I-157]
-- reply 0.86

-- ask Same thing, different compound: Cn1nc([C@H]2CCC(=O)NC2=O)c2ccc(N3CCN(CC4CCN(c5ccc([C@@H]6c7ccc(O)cc7CC[C@@H]6c6ccccc6)cc5)CC4)CC3)cc21 (single isomer, unassigned) [Compound I-295]
-- reply 0.84

-- ask # repeat for Cc1cc(N2CCC(CN3CCN(c4ccc5c(c4)CN([C@H]4CCC(=O)NC4=O)C5=O)CC3)CC2)ccc1[C@@H]1c2ccc(O)cc2CC[C@@H]1c1ccccc1 [Compound I-139]
-- reply 0.76

-- ask Then O=C1CC[C@H](N2Cc3cc(N4CCN(CC5CCN(c6ccc([C@@H]7c8ccc(O)cc8CCC78CCCCC8)cc6)CC5)CC4)ccc3C2=O)C(=O)N1 [Compound I-85] ?
-- reply 0.64

---

# target_system: ERα protein (HiBiT-tagged) in ESR1_HiBiT KI MCF7 cells (Homo sapiens, UniProt P03372)
# Sequence (P03372 1-595): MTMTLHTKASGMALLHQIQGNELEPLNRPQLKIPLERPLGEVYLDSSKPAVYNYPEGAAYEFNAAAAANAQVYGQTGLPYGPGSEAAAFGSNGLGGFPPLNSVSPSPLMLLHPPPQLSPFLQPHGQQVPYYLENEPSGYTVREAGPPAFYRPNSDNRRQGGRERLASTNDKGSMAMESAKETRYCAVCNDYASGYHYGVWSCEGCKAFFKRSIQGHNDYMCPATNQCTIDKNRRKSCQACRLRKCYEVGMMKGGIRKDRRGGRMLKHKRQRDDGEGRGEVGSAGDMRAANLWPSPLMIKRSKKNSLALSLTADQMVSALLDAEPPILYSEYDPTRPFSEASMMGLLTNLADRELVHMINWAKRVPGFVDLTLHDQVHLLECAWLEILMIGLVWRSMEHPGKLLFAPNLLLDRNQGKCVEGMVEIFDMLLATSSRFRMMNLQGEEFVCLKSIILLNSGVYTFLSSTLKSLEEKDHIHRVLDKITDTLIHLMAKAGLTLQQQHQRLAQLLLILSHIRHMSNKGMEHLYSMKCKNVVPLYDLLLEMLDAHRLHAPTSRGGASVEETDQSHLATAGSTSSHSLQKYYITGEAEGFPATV
# protocol_details: Nano Glo HiBiT Lytic Degradation Assay
# Assay type: cell-based
# measurement_parameters: 6 hours with compound, 14-point dose response 1:3, bell-shape curve fit, half-maximal effect of first Hill model, read-out: MCF7 ESR1 HiBiT - (DC50)
# Description: Selected compounds of the present disclosure were tested in a Nano Glo HiBiT Lytic Degradation Assay to measure the level of ERα protein degradation in MCF7 cells. Cell culture: ESR1_HiBiT KI MCF7 cells were maintained in growth media without antibiotics. […] Cell seeding: Cells were counted using a Vi-Cell and seeded in a 384-well flat-bottom microplate (cell culture-treated) at 4000 cells/well in 25 μL of growth medium using a BioTek MultiFlo Multimode Dispenser. […]
Catalogue of DC50 values

Answered cases to consult:
compound: O=C1CC[C@H](N2Cc3cc(N4CCN(CC5CCN(c6ccc([C@H]7c8ccc(O)cc8CC[C@H]7c7cccc(O)c7)cc6)CC5)CC4)ccc3C2=O)C(=O)N1
target_system: ERα protein (HiBiT-tagged) in ESR1_HiBiT KI MCF7 cells (Homo sapiens, UniProt P03372)
result_value: ≥ 10 µM
//
compound: O=C1CCC(c2cccc(N3CCC4(CCN(CC5CCN(c6ccc([C@@H]7c8ccc(O)cc8CC[C@@H]7c7ccccc7)cc6)CC5)CC4)CC3)c2)C(=O)N1 (stereo partly shown)
target_system: ERα protein (HiBiT-tagged) in ESR1_HiBiT KI MCF7 cells (Homo sapiens, UniProt P03372)
result_value: ≥ 10 µM

-- ask What value of measured DC50 is listed for O=C1CC[C@H](N2Cc3cc(N4CCN(CC5CCN(c6ccc([C@H]7c8ccc(O)cc8CC[C@H]7c7ccccn7)cc6)CC5)CC4)ccc3C2=O)C(=O)N1 ?
-- reply ≥ 10 µM

-- ask // repeat for O=C1CC[C@H](N2Cc3cc(N4CCN(CC5CCN(c6ccc([C@@H]7c8ccc(O)cc8CC[C@@H]7c7cccc(F)c7)cc6)CC5)CC4)ccc3C2=O)C(=O)N1 (single isomer, unassigned) and report
-- reply ≥ 10 µM

---

Reported DC50 values for the following molecules.
# target_system: ERα protein (HiBiT-tagged) in ESR1_HiBiT KI MCF7 cells (Homo sapiens, UniProt P03372)
# Sequence (P03372 1-595): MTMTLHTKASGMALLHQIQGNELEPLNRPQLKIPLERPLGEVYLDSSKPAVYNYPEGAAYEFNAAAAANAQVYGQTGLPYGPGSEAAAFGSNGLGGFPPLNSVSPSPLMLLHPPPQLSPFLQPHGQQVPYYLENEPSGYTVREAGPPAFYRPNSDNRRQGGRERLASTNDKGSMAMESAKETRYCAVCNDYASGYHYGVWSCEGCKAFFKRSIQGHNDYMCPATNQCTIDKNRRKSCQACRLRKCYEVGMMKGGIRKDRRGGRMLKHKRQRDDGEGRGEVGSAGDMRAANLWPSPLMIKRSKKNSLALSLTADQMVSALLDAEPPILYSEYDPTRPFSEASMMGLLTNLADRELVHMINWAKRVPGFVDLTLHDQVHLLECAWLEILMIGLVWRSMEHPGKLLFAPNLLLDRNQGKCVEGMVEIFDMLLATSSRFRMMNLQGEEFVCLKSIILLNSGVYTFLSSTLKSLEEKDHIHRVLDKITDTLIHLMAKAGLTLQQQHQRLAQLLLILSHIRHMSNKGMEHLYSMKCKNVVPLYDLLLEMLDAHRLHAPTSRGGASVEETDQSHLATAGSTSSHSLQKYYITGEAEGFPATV
# protocol_details: Nano Glo HiBiT Lytic Degradation Assay
# Type: cell-based
# measurement_parameters: 6 hours with compound, 14-point dose response 1:3, bell-shape curve fit, half-maximal effect of first Hill model, read-out: MCF7 ESR1 HiBiT - (DC50)

As a guide, the following entries are already answered.
molecule: O=C1CC[C@H](N2Cc3cc(N4CCN(CC5CCN(c6ccc([C@@H]7c8ccc(O)cc8CC[C@@H]7c7cccc8c7CCC8)cc6)CC5)CC4)ccc3C2=O)C(=O)N1 (single isomer, unassigned) [Compound I-410]
result_value: ≥ 10 µM
//
molecule: C[C@@]1(C2CCCCC2)CCc2cc(O)ccc2[C@@H]1c1ccc(N2CCC(CN3CCN(c4ccc5c(c4)CN([C@H]4CCC(=O)NC4=O)C5=O)CC3)CC2)cc1 [Compound I-237]
result_value: ≥ 10 µM

-- ask Report DC50 for O=C1CC[C@H](N2Cc3cc(N4CCN(CC5CCN(c6ccc([C@H]7c8ccc(O)cc8C(F)(F)C[C@H]7c7ccccc7)nc6)CC5)CC4)ccc3C2=O)C(=O)N1 [Compound I-337] please.
-- reply ≥ 10 µM
